system: NCI-H226 lung; experiment: NCI tumour cell line growth inhibition, 48 h
parameter: log10 of TGI (log10 of the value in µM)

{"compound": "O=C1C(=O)c2c(nc3ncccn23)-c2ccccc21", "system": "NCI-H226 lung", "log10 of TGI": 0.10}
{"compound": "CC(C)(CCC(C)(C)c1ccccc1)c1ccccc1", "system": "NCI-H226 lung", "log10 of TGI": 1.58}
{"compound": "COc1cc(/C=C2\\CCc3ccccc3C2=O)cc(OC)c1OC", "system": "NCI-H226 lung", "log10 of TGI": 1.57}
{"compound": "COc1cc(C(CC(OC)OC)=C(C#N)C#N)cc(OC)c1OC", "system": "NCI-H226 lung", "log10 of TGI": 1.14}
{"compound": "CN1CCN(c2cc(Nc3cc(C4CC4)[nH]n3)nc(Nc3ccc(CC(=O)NCc4cccc(F)c4)cc3)n2)CC1", "system": "NCI-H226 lung", "log10 of TGI": 1.04}
{"compound": "COc1cccc2c1C(=O)c1c(O)c3c(c(O)c1C2=O)C[C@@](O)(/C(C)=N\\O)C[C@@H]3OC1CC(N)C(O)C(C)O1 (some centres not stated)", "system": "NCI-H226 lung", "log10 of TGI": 0.88}
{"compound": "COc1ccc(-c2nn(-c3cccc(NC(=O)Nc4cccc(C(F)(F)F)c4)c3)cc2-c2ccncc2)cc1Cl", "system": "NCI-H226 lung", "log10 of TGI": 0.97}
{"compound": "N#CI1OC(C(F)(F)F)(C(F)(F)F)c2ccccc21", "system": "NCI-H226 lung", "log10 of TGI": 1.69}
{"compound": "COc1ccc2sc3c(NCCCNCCO)nc4ccccc4c3c(=O)c2c1", "system": "NCI-H226 lung", "log10 of TGI": 0.57}

* * *

Reported TGI values follow for various molecules
test system: OVCAR-4 ovarian; assay: NCI tumour cell line growth inhibition, 48 h
parameter: TGI

{"molecule": "O=[N+]([O-])c1ccc(Cl)cc1N/N=C/c1cccs1", "system": "OVCAR-4 ovarian", "parameter": "TGI", "endpoint result": "> 100 µM"}
{"molecule": "CC(CC(C)(C)[N+](C)(C)C)[N+](C)(C)C (stereo unspecified)", "system": "OVCAR-4 ovarian", "parameter": "TGI", "endpoint result": "> 100 µM"}
{"molecule": "COc1ccc(S(=O)(=O)N/N=C(\\C)CN2C(=O)c3ccccc3C2=O)cc1", "system": "OVCAR-4 ovarian", "parameter": "TGI", "endpoint result": "> 100 µM"}
{"molecule": "Cc1nn(C)c(=S)n(C)c1=O", "system": "OVCAR-4 ovarian", "parameter": "TGI", "endpoint result": "> 100 µM"}
{"molecule": "C=C1C(=O)O[C@H]2[C@H]1CC(=O)/C(C)=C\\CC[C@@]1(C)O[C@@H]21", "system": "OVCAR-4 ovarian", "parameter": "TGI", "endpoint result": "8.12 µg/mL"}
{"molecule": "COc1ccc2c(c1)C(=O)c1c-2n(CCCCl)c(=O)c2cc(N(C)C)ccc12", "system": "OVCAR-4 ovarian", "parameter": "TGI", "endpoint result": "> 100 µM"}

* * *

test system: HT29 colon; assay: NCI tumour cell line growth inhibition, 48 h; in the data active = GI50 below about 0.43 µM; inactive = the rest
Outcome codes: active, inactive

{"compound": "COC(=O)c1cc2c(cc1Cl)SC(N(N(C)C)S(=O)(=O)c1ccc(Cl)cc1)=NS2(=O)=O", "system": "HT29 colon", "class assignment": "inactive"}
{"compound": "COc1ccc2sc3c(NCCCNCCO)nc4ccccc4c3c(=O)c2c1", "system": "HT29 colon", "class assignment": "inactive"}
{"compound": "CC(C)[C@@H](CS(=O)(=O)C(C)C)N1C(=O)[C@@](C)(CC(=O)O)C[C@H](c2cccc(Cl)c2)[C@H]1c1ccc(Cl)cc1", "system": "HT29 colon", "class assignment": "inactive"}
{"compound": "COc1ccc2c(c1)C(=O)c1c-2n(CCCCl)c(=O)c2cc(N(C)C)ccc12", "system": "HT29 colon", "class assignment": "inactive"}
{"compound": "NCC(=O)CCC(=O)O", "system": "HT29 colon", "class assignment": "inactive"}
{"compound": "C1C[OH+]CC[OH+]CC[OH+]CC[OH+]CC[OH+]CC[OH+]1.[Cl-].[Ta+5]", "system": "HT29 colon", "class assignment": "inactive"}
{"compound": "C=C1CO[C@@H]2C[C@@H]1CCC1(C)OC1CC/C(C)=C/CC[C@@]2(C)O (some centres undefined)", "system": "HT29 colon", "class assignment": "inactive"}
{"compound": "C[C@@]12CCC[C@@](C)(C(=O)O)C1CC[C@@]13CC(=O)[C@@](CO)(CCC12)C3 (some centres undefined)", "system": "HT29 colon", "class assignment": "inactive"}
{"compound": "COc1cccc2c(Nc3ccc(C(=O)NCCN(C)C)cc3)cc(-c3ccccc3)nc12", "system": "HT29 colon", "class assignment": "inactive"}
{"compound": "Cc1ccccc1NC(=O)c1sc2nc3c(cc2c1N)C(=O)CCC3", "system": "HT29 colon", "class assignment": "inactive"}
{"compound": "O=C(Nc1ccccc1F)c1ccc(NC2=C(Cl)C(=O)N(Cc3ccccc3)C2=O)cc1", "system": "HT29 colon", "class assignment": "inactive"}
{"compound": "Cc1[nH]nc(C(=O)Nc2n[nH]c3ccccc23)c1[N+](=O)[O-]", "system": "HT29 colon", "class assignment": "inactive"}
{"compound": "Nc1c(O)c(S(=O)(=O)O)c(O)c2c1C(=O)c1ccccc1C2=O", "system": "HT29 colon", "class assignment": "inactive"}
{"compound": "COc1ccc(-c2[nH]ncc2-c2cc(OC)c(OC)c(OC)c2)cc1", "system": "HT29 colon", "class assignment": "active"}
{"compound": "Nc1nc(Nc2ccc3c(c2)CCC(N2CCCC2)CC3)nn1-c1cc2c(nn1)-c1ccccc1CCC2 (centres undefined)", "system": "HT29 colon", "class assignment": "inactive"}
{"compound": "c1ccc2c(c1)ccc1c3ccccc3ccc21", "system": "HT29 colon", "class assignment": "inactive"}
{"compound": "CC(=O)OC1=C2C(CC3C4CC=C5CC(OC(C)=O)CCC5(C)C4CCC23C)C2C(=O)N(Cc3ccccc3)C(=O)C2C1 (centres undefined)", "system": "HT29 colon", "class assignment": "inactive"}
{"compound": "COc1ccc(/C=C/C(c2cc(OC)c(OC)c(OC)c2)n2cncn2)cc1O (centres undefined)", "system": "HT29 colon", "class assignment": "inactive"}
{"compound": "CC12CCC(O)CC1CCC1C2CCC2(C)C(C3=CC(=O)OC3)CCC12 (centres undefined)", "system": "HT29 colon", "class assignment": "inactive"}
